- System: leukotriene pathway in human whole blood (LTB4 levels)
- assay-method-text: Human whole blood assay (LTB4)
- Assay type: cell-based
- experimental-context: human whole blood diluted 1:1 in RPMI, stimulated with calcium ionophore A23187; single replicate
- Description: The ability of the compounds of the present invention to treat a FLAP-mediated disease and/or disorder, or associated symptoms or complications thereof, was determined using the following procedures. Binding assay data represent the average value obtained from two different assay plates, with samples run in duplicate on each plate. Human whole blood assay data represent a single replicate on an assay plate using whole blood from at least one healthy donor. […]
property-label: pIC50
Quick note: pIC50 values are minus log10 of concentrations in mol/L.

Please review the following examples before continuing.
Nc1cnc(-c2ccc(C3CCC3)c(OCC(O)CNc3cnccn3)c2F)cn1 (racemic)	6.46
COc1c(C2CCC2)ccc(-c2ncc(N)nc2C#N)c1F	5.78
Fc1c(-c2cnc3c(c2)OCCN3)ccc(C2CCC2)c1OCc1ccc(C(F)(F)F)cc1	5.46
NC(=O)c1ncc(Oc2c(C3CCC3)ccc(-c3cnc(N)cn3)c2F)cn1	7.41

Challenge: Endpoint output: pIC50 of Cc1cc(N)nc(Oc2c(C3CCC3)ccc(-c3cnc(N)cn3)c2F)n1 . Value?
Response given: 7.45

* * *

- Tested on: leukotriene pathway in human whole blood (LTB4 levels)
- assay-method-text: Human whole blood assay (LTB4)
- Type: cell-based
- experimental-context: human whole blood diluted 1:1 in RPMI, stimulated with calcium ionophore A23187; single replicate
Entries and their log10 IC50
Log10 applied to IC50; unit prior to transform: nM.

Solved cases below.
CC(C)(C)c1ccc(-c2cnc(N)cn2)c(F)c1Oc1cc(N)ncn1 [Example 202]	1.91
COc1cc(Oc2c(C3CCC3)ccc(-c3cnc4[nH]ccc4n3)c2F)ncn1 [Example 229]	2.61
COc1cc(Oc2c(C3CCC3)ccc(-c3cnc(N)cn3)c2F)ncn1 [Example 97]	2.18
COC(=O)c1ccnc(Oc2c(C3CCC3)ccc(-c3cnc(N)cn3)c2F)n1 [Example 151]	1.88
CS(=O)(=O)c1ccc(Oc2c(C3CCC3)ccc(-c3cnc(N)cn3)c2F)c(Cl)c1 [Example 123]	3.65

Challenge: # query: log10 IC50 of entry Nc1cnc(-c2ccc(C3CCC3)c(Oc3ccnc(C(F)(F)F)n3)c2F)cn1 [Example 124]
Response given: 2.08

Challenge: Param item = Nc1cnc(-c2ccc(C3CCC3)c(Oc3ncc(C(F)(F)F)cn3)c2F)cn1 [Example 104] ; retrieve measured log10 IC50.
Response given: 3.45

Challenge: Which measured log10 IC50 value corresponds to Nc1cnc(-c2ccc(C3CCC3)c(Oc3nccc(N)n3)c2F)cn1 [Example 119] ?
Response given: 1.42

* * *

Counter-ions that a name gives are not always drawn.
Recorded pKi values (human FLAP (Homo sapiens (Human), UniProt P20292)) are given below.
Kindly note that pKi refers to -log10 of the concentration in mol/L and answer with the value alone.

For orientation, consider the following solved cases.
Nc1cnc(-c2ccc(C3CCC3)c(OCc3c(F)cccc3F)c2F)cn1	6.77
Nc1ncc(-c2ccc(C3CCC3)c(Oc3cc(O)ncn3)c2F)cn1 [Example 171, trifluoroacetate]	7.40
Nc1cnc(-c2ccc(C3CCC3)c(OCc3ccccc3S(F)(F)(F)(F)F)c2F)cn1	6.40
Nc1ccnc(Oc2c(C3CCC3)ccc(-c3cnc(N)nc3)c2F)n1	7.65
Nc1cnc(-c2ccc(C3CCC3)c(OCc3cccc(-c4nnn[nH]4)c3)c2F)cn1	8.10
Nc1cnc(-c2ccc(C3CCC3)c(Oc3ccnc(Oc4c(C5CCC5)ccc(-c5cnc(N)cn5)c4F)n3)c2F)cn1	7.63

We next turn to a different compound, shown below.
Challenge: Query for human FLAP (Homo sapiens (Human), UniProt P20292): what pKi does the record show for COc1ccnc(Oc2c(C3CCC3)ccc(-c3cnc(N)cn3)c2F)n1 ?
Response given: 8.52

These entries and their values trace back to patent US9073876B2.
